- Assay text: soluble on expression in E. coli; label from the status in PepcDB or PDB records
Parameter measured: soluble on expression in E. coli

MPKVISQKEFNILSRTKERVNFQIVYTKQRNGLHKAAKEYFFKDKDFTIIEDTPDTPDQPDGPCITKGPKEPGGPEEPNGPDKPEDPKDPDTPDVSEGPKEQGGQKDPGGPDDPSEGKQKVSKPDKYVTHRELDEKLKDFATKADFKRVEDKVDVLFELQKTQGEQIKVQGEQIKAQGKQIEQLTETVKVQGEQIRAQGEQIKAQSEEIKEIKVEQKAQGEQIKELQVEQKAQGKTLQLILKTLEKMNERLEKLESKLEHHHHHH; not soluble
MGSDKIHHHHHHMDCNGSGGSSDDDKPLHHDGGVRMKFFRSVGEVFGYSPFRSLAQHARMCGRAVGLLQQQFEALRRGNYEEVEELREEIDELEHHADQIKEEIRGNVTKSLMLPVDRHDLLEFLKVQDDILNNCEHVGHMVTFRKVSAPEDVWDEFLVLLSKLMEIVNNYEEMVERIMQLVETSFSKKEVNRALEYVPIIEQLEHECDLIQIGLHTKLFNLENSNPLDIQLMVTWVVHLGYVANAAARASDRFRIMILGR; not soluble
MGSDKIHHHHHHKYTLRFGHVLAPGEPYHQAFLKWAKAVEEKTNGDVRIEVFPSSQLGVEEDIIEQIRMGAPVGWNTDSARLGMYVKDIGVMNLAYFIDFMGAKTPEEAIEVLKKIKQSPTMQKWLKELEQRFGIKVLSFYWVQGYRHFVTNKPIRKPEDLNGLRIRTPGAPAWQESIRSLGAIPVAVNFGEIYTAVQTRAVDGAELTYANVYNGGLYEVLKYMSETGHFLLINFEIVSADWFNSLPKEYQKIIEEEMDKAGIEVSLKIMKELEEEYKQKCIEKGMAVIPASEIDKEAFMEKAKQAYKNLGLENALNQLIKEVKGE; not soluble
MVDIPAGEWQTDACPGWKEGRVCPPEKYLRQTLQIAPFQLSATAVTFAQWDACVDDGGCQEPDTGWAYQTRPNQPPCQAGSPCNYPYDEGWGRGDRPVIHVSWNDAQRYVDWLSQKTGQRYRLPTSEEWEYAAAAGSHARFAWGTKLGKNRGNCNGCGSRWDGKKTAPVASFAPNRFGLYDMVGNVSEWVSTCVPIRSKPGEDNQTCMAYLYRGGAWSYDAKSVGIDTYHSIDADFRANYIGFRVARLEHHHHHH; not soluble

====

- Assay text: soluble on expression in E. coli; label from the status in PepcDB or PDB records
Parameter measured: soluble on expression in E. coli

MIKYSIRGENIEVTEAIREYVETKLSKVEKYFNEAQELDTRVNLKVYREKTAKVEVTILIDSITLRAEDVSQDMYGSIDLVVDKIERQIRKNKTKIAKKYREKIPASQVFTTEFEAEPDEEAVSQRIVRTKNVNLKPMDVEEALLQMELLGHDFFIYTDAEDNTTNVLYKREDGELGLIEAKGNLEHHHHHH; soluble
MGCSSQTHSSQKETTIPVTLHVEDAKGLPVEGVQVTIVKAPSSDEEPSTEIGEILGKTDKNGDIKWDTGRKGDYSVALTKGETSVTHHISLTEDKKDHAIPLVFKELEHHHHHH; soluble
MPMFIVNTNVPRASVPDGFLSELTQQLAQATGKPPQYIAVHVVPDQLMAFGGSSEPCALCSLHSIGKIGGAQNRSYSKLLCGLLAERLRISPDRVYINYYDMNAANVGWNNSTFALEHHHHHH; soluble
